Reported pKd values are given for each entry in this list.
Measured on: T1, recombinant hIL1RAP 21-367 (human, UniProt Q9NPH3 21-367)
T1 construct: range 21-367; also called Rec hIL1RAP Domain123 (aa21-367); Domain123
Method summary: indirect ELISA on coated hIL1RAP 21-367, three-fold dilutions from 3.5 nM
pKd: −log10 of the molar value.

Binder	pKd
hCAN04 Variant 1 (antibody, human IgG1, kappa, V domains shown, Human IgG1za / kappa, expressed in CHOK1SV cells; also called Var1; humanized variant 1 of CAN04) VH: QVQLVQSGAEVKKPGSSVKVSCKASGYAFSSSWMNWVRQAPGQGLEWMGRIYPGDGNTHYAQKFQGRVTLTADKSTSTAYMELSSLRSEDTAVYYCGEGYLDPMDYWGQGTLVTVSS VL: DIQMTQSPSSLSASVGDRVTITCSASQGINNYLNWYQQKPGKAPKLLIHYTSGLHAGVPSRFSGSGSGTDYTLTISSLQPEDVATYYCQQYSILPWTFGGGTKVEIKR	9.90
hCAN04 Variant 12 (antibody, human IgG1, kappa, V domains shown, Human IgG1za / kappa, expressed in CHOK1SV cells; also called Var 12; humanized variant 12 of CAN04) VH: QVQLVQSGAEVKKPGSSVKVSCKASGYTFTSSWMNWVRQAPGKGLEWMGRIYPGDGQTHYAQKFQGRVTITADKSTSTAYMELSSLRSEDTAVYYCGEGYLDPMDYWGQGTLVTVSS VL: DIQMTQSPSSLSASVGDRVTITCQASQGINNYLNWYQQKPGKAPKLLIHYTSGLHAGVPSRFSGSGSGTDFTLTISSLEPEDVATYYCQQYSILPWTFGGGTKVEIKR	9.21
